System tested: Tyrosine-protein kinase Tec (Homo sapiens) (UniProt P42680);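 also: each value is the mean of the inhibition measurements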
Sequence (P42680 whole entry): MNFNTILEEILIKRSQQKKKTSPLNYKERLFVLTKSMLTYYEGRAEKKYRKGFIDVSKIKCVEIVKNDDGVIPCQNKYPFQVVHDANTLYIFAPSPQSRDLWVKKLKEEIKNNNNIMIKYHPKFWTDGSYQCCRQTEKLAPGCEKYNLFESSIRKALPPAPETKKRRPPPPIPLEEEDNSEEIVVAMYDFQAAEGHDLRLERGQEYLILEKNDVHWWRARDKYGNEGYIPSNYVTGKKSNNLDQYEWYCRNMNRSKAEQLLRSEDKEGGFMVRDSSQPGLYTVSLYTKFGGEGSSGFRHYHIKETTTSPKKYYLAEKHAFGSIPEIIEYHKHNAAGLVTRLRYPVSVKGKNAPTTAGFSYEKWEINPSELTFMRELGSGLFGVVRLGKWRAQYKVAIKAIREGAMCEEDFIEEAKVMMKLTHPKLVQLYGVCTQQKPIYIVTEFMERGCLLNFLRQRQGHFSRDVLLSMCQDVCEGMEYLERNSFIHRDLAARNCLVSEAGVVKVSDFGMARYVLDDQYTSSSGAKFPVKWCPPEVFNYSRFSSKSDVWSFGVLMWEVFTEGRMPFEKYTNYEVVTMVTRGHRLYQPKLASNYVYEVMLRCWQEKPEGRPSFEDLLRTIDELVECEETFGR
Condition parameters: at 1 µM
Measured quantity: inhibition (%)
Answers are plain numbers, in %.

NS(=O)(=O)c1ccc(N/N=C2\C(=O)Nc3ccc(C(=O)NCc4ccncc4)cc32)cc1 | 7.13

Parameters: items (list). Returns: inhibition for each item.
1. COc1cc2c(cc1Nc1nc(Nc3cccc(F)c3C(N)=O)c3cc[nH]c3n1)N(C(=O)CN1CCN(C(C)C)CC1)CC2
2. CS(=O)(=O)Nc1ccc(-c2ccc3c(NC(=O)C4CC4)n[nH]c3c2)cc1
3. COc1ccccc1-c1cc(/C=C2\C(=O)Nc3ncc(Br)cc32)cc(Br)c1O
4. c1ccc(-c2n[nH]cc2-c2ccnc(-c3ccc(OCCn4ccnc4)cc3)c2)nc1

# output
1.94
7.11
10.3
0.73
